Cited source for all entries: paper PMC7156458

# tested-system: UniProt P05067
# assay-notes: Th-T (thioflavin-T) assay of Aβ42 aggregation
# Format: biochemical
# test-conditions: column suffix _10; reading M104
quantity-measured: Fig. 7a Th-T reading, mean of three wells

| compound | recorded-number |
| --- | --- |
| C=C1CCC2C(C)(CCC=C(C)C)C(O)CCC2(C)C1Cc1c(OC)oc(CO)c(C(=O)OC)c1=O (centres unmarked) | 1.5457 |
| C=C1CCC2C(C)(CCC=C(C)C)C(O)CCC2(C)C1Cc1c(OC)oc(C)c(C(=O)OC)c1=O (centres unmarked) | 2.878 |
| C=C1CC[C@@H]2[C@](C)(CC[C@H]3O[C@H](C=C(C)C)C[C@@]23C)[C@@H]1Cc1c(OC)oc(CO)c(C)c1=O | 3.29 |
| C=C1CCC2C(C)(CCC=C(C)C)C(O)CCC2(C)C1Cc1c(OC)oc(CO)c(C)c1=O (centres unmarked) | 2.806 |
| C=C1CC[C@@H]2[C@](C)(CC[C@H]3O[C@H](C=C(C)C)C[C@@]23C)[C@@H]1Cc1c(OC)oc(CO)c(C(=O)OC)c1=O | 1.621 |

---

# tested-system: Aβ42 (Homo sapiens)
# Sequence (P05067 672-713): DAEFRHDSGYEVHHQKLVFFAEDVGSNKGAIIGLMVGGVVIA
# assay-notes: Th-T (thioflavin-T) assay of Aβ42 aggregation
# Type: biochemical
# test-conditions: Aβ42 aggregation time course, reading M126
Th-T fluorescence, mean of three wells values, listed per item

| molecule | Th-T fluorescence, mean of three wells |
| --- | --- |
| C=C1CC[C@H]2[C@]3(C)C[C@@H](C=C(C)C)O[C@H]3CC[C@]2(C)[C@@H]1Cc1c(OC)oc(CO)c(C)c1=O | 3.626 |
| C=C1CCC2C(C)(CC(=O)C=C(C)C)C(O)CCC2(C)C1Cc1c(O)c(C)c(C)oc1=O (centres unmarked) | 3.465 |
| C=C1CC[C@@H]2[C@](C)(CC[C@H]3O[C@H](C=C(C)C)C[C@@]23C)[C@@H]1Cc1c(OC)oc(CO)c(C)c1=O | 4.13 |
| C=C1CCC2C(C)(CCC=C(C)C)C(O)CCC2(C)C1Cc1c(O)c(C)c(C)oc1=O (centres unmarked) [Compound 9, higginsianin B] | 2.7918 |
| C=C1CCC2C(C)(CCC=C(C)C)C(O)CCC2(C)C1Cc1c(OC)oc(C)c(C)c1=O (centres unmarked) [Compound 15, viridoxin A hydrolysate] | 3.362 |
| C=C1CCC2C3(C)CC(C=C(C)C)OC3CCC2(C)C1Cc1c(OC)oc(C)c(C)c1=O (centres unmarked) | 3.803 |
| C=C1CCC2C(C)(CCC=C(C)C)C(O)CCC2(C)C1Cc1c(O)c(C)c(C)oc1=O (centres unmarked) [Compound 4] | 2.764 |
| C=C1CCC2C(C)(CC(=O)C=C(C)C)C(O)CCC2(C)C1Cc1c(OC)oc(C)c(C)c1=O (centres unmarked) | 3.529 |
| C=C1CCC2C(C)(CCC=C(C)C)C(O)CCC2(C)C1Cc1c(OC)oc(CO)c(C)c1=O (centres unmarked) | 2.03 |
| C=C1CCC2C(C)(CCC=C(C)C)C(O)CCC2(C)C1Cc1c(OC)oc(C)c(C(=O)OC)c1=O (centres unmarked) | 1.688 |
| C=C1CC[C@@H]2[C@](C)(CC[C@H]3O[C@H](C=C(C)C)C[C@@]23C)[C@@H]1Cc1c(OC)oc(CO)c(C(=O)OC)c1=O | 1.048 |
| CC(C)=CCC/C(C)=C/CC/C(C)=C/CC/C(C)=C/Cc1c(O)c(C)c(C)oc1=O | 2.934 |
| C=C1CC[C@H]2[C@]3(C)C[C@H](C=C(C)C)O[C@H]3CC[C@]2(C)[C@@H]1Cc1c(OC)oc(C)c(C)c1=O | 3.889 |
| C=C1CC[C@@H]2[C@](C)(CC[C@H]3O[C@H](C=C(C)C)C[C@@]23C)[C@@H]1Cc1c(O)c(C)c(C)oc1=O | 2.985 |
